- test.target: HIV-1 Env of strain AC10.0.29 (HIV-1)
- experiment.description: cell-based or functional assay
Reported neutralization IC50 values are given for each entry in this list.
Reply numerically in µg/mL, unit not repeated.

Sample records with neutralization IC50:
{"binder": "NIH45-46 G54H IgG (antibody, name in Kabat numbering, V domains shown) VH: QVRLSQSGGQMKKPGESMRLSCRASGYEFLNCPINWIRLAPGRRPEWMGWLKPRHGAVNYARKFQGRVTMTRDVYSDTAFLELRSLTSDDTAVYFCTRGKYCTARDYYNWDFEHWGRGAPVTVSS VL: EIVLTQSPATLSLSPGETAIISCRTSQSGSLAWYQQRPGQAPRLVIYSGSTRAAGIPDRFSGSRWGADYNLSISNLESGDFGVYYCQQYEFFGQGTKVQVDI", "attribute.measured": "neutralization IC50", "measurement.unit": "µg/mL", "observed.value": 0.6}
{"binder": "NIH45-46 G54M IgG (antibody, name in Kabat numbering, V domains shown) VH: QVRLSQSGGQMKKPGESMRLSCRASGYEFLNCPINWIRLAPGRRPEWMGWLKPRMGAVNYARKFQGRVTMTRDVYSDTAFLELRSLTSDDTAVYFCTRGKYCTARDYYNWDFEHWGRGAPVTVSS VL: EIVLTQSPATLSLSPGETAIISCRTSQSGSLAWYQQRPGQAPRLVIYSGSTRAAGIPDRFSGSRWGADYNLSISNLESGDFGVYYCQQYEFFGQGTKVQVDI", "attribute.measured": "neutralization IC50", "measurement.unit": "µg/mL", "observed.value": 1.5}
{"binder": "NIH45-46 G54L IgG (antibody, name in Kabat numbering, V domains shown) VH: QVRLSQSGGQMKKPGESMRLSCRASGYEFLNCPINWIRLAPGRRPEWMGWLKPRLGAVNYARKFQGRVTMTRDVYSDTAFLELRSLTSDDTAVYFCTRGKYCTARDYYNWDFEHWGRGAPVTVSS VL: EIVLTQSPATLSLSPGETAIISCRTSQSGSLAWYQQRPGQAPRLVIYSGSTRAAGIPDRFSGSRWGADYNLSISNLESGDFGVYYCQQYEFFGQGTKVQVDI", "attribute.measured": "neutralization IC50", "measurement.unit": "µg/mL", "observed.value": 1.7}
{"binder": "NIH45-46^G54W IgG (antibody, name in Kabat numbering, V domains shown) VH: QVRLSQSGGQMKKPGESMRLSCRASGYEFLNCPINWIRLAPGRRPEWMGWLKPRWGAVNYARKFQGRVTMTRDVYSDTAFLELRSLTSDDTAVYFCTRGKYCTARDYYNWDFEHWGRGAPVTVSS VL: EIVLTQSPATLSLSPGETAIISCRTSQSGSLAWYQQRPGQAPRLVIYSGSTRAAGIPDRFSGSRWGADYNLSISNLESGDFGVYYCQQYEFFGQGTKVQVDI", "attribute.measured": "neutralization IC50", "measurement.unit": "µg/mL", "observed.value": 0.2}

Now turn to the next binder.
**Q:** Consider the binder NIH45-46 G54I IgG (antibody, name in Kabat numbering, V domains shown) VH: QVRLSQSGGQMKKPGESMRLSCRASGYEFLNCPINWIRLAPGRRPEWMGWLKPRIGAVNYARKFQGRVTMTRDVYSDTAFLELRSLTSDDTAVYFCTRGKYCTARDYYNWDFEHWGRGAPVTVSS VL: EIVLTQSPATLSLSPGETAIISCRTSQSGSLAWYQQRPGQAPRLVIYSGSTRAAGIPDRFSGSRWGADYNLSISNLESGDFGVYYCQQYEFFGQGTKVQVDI and give its measured neutralization IC50.
**A:** 8.6
